Form field: Kd (one value per entry).
Target: T1, human IL-33 (R&D Systems, #3625-IL-010/CF) (human) (UniProt O95760)
T1 sequence (looked up): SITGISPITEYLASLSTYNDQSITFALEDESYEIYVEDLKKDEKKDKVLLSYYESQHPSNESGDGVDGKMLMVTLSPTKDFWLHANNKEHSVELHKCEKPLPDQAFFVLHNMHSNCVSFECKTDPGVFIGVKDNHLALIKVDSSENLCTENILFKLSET
Assay: SPR Biacore T200, 25 C
property: Kd (nM)

1) H4H9662P (antibody, from another filing, IgG4, V domains shown) VH: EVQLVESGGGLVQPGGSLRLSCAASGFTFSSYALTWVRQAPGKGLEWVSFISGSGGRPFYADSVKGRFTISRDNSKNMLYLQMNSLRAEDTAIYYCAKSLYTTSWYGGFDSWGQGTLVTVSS VL: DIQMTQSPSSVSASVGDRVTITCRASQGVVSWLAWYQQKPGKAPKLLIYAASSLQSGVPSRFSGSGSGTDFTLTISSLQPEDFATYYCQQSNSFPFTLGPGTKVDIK : 0.527
2) H4H9660P (antibody, from another filing, IgG4, V domains shown) VH: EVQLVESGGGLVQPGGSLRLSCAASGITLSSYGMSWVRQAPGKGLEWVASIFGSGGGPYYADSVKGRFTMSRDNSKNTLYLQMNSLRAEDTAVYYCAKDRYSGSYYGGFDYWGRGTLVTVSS VL: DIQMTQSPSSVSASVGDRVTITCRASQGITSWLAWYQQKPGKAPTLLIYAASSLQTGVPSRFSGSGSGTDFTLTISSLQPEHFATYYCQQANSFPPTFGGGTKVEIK : 0.67
3) H4H9675P (antibody, from another filing, IgG4, V domains shown) VH: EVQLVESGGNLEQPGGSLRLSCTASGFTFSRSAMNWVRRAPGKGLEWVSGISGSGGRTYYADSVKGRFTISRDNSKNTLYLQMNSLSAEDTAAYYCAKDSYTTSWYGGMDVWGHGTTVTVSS VL: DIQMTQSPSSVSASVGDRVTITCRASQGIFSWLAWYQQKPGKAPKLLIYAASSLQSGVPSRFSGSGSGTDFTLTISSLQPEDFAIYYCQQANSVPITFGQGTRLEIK : 0.391
